- test.method.notes: in vitro
- Format: cell-based
- settings: human; log c -6; 24 h; MTT; read-out: % of viability
measured.attribute: viability at 24 h, 1 μM (%)

| compound | measured.attribute | result.number |
| --- | --- | --- |
| C[C@]12CCC(=O)C=C1CC[C@@H]1[C@@H]2[C@@H](O)C[C@@]2(C)[C@H]1CC[C@]2(O)C(=O)CO | viability at 24 h, 1 μM | 107 |
| C[C@]12CC[C@H]3[C@@H](CCC4=CC(=O)CC[C@@]43C)[C@@H]1CC[C@@H]2O | viability at 24 h, 1 μM | 105 |
| C[C@]12CCC(=O)C[C@@H]1CC[C@@H]1[C@@H]2CC[C@]2(C)[C@@H](O)CC[C@@H]12 [5α-dihydrotestosterone] | viability at 24 h, 1 μM | 108 |
| C[C@]12CCC(=O)C=C1CC[C@@H]1[C@@H]2[C@@H](O)C[C@]2(C=O)[C@@H](C(=O)CO)CC[C@@H]12 | viability at 24 h, 1 μM | 98.6 |

====

Parameter viability at 24 h, 100 nM: see the listing below.
- test.method.notes: in vitro
- Type: cell-based
- settings: human
Where a name gives a salt, the structure may show the parent alone.
measured.attribute: viability at 24 h, 100 nM

| compound | result |
| --- | --- |
| C[C@H]1C[C@@H]2[C@H]([C@@H](O)C[C@@]3(C)[C@H]2CC[C@]3(O)C(=O)CO)[C@@]2(C)C=CC(=O)C=C12 | 105% |
| C[C@]12C[C@H](O)[C@H]3[C@@H](CCC4=CC(=O)CC[C@@]43C)[C@@H]1CC[C@@H]2C(=O)CO | 111% |
| CC(=O)O[C@]1(C(C)=O)CC[C@H]2[C@@H]3C=C(Cl)C4=CC(=O)[C@@H]5C[C@@H]5[C@]4(C)[C@H]3CC[C@@]21C [Cyproterone acetate, cyproterone acetate] | 106% |
| O=c1c(-c2ccc(O)cc2)coc2cc(O)cc(O)c12 | 103% |
| C#C[C@]1(O)CC[C@H]2[C@@H]3CCC4=Cc5oncc5C[C@]4(C)[C@H]3CC[C@@]21C | 109% |
| CC/C(=C(/CC)c1ccc(O)cc1)c1ccc(O)cc1 | 102% |
| CC/C(=C(\c1ccccc1)c1ccc(OCCN(C)C)cc1)c1ccccc1 [Tamoxifen citrate, tamoxifen citrate salt] | 106% |
| CC(=O)[C@H]1CC[C@H]2[C@@H]3CCC4=CC(=O)CC[C@]4(C)[C@H]3CC[C@]12C | 99.8% |
| CC#C[C@]1(O)CC[C@H]2[C@@H]3CCC4=CC(=O)CCC4=C3[C@@H](c3ccc(N(C)C)cc3)C[C@@]21C | 104% |
| C[C@]12C=CC(=O)C=C1CC[C@@H]1[C@@H]2[C@@H](O)C[C@@]2(C)[C@H]1CC[C@]2(O)C(=O)CO | 107% |
| CC(=O)S[C@@H]1CC2=CC(=O)CC[C@]2(C)[C@H]2CC[C@@]3(C)[C@@H](CC[C@@]34CCC(=O)O4)[C@H]12 | 113% |

====

Parameter viability at 24 h, 1 nM: see the listing below.
- test.method.notes: in vitro
- Assay type: cell-based
- settings: human
Counter-ions that a name gives are not always drawn.

| compound | viability at 24 h, 1 nM / % |
| --- | --- |
| CC/C(=C(/CC)c1ccc(O)cc1)c1ccc(O)cc1 | 101 |
| O=C(c1ccc(OCCN2CCCCC2)cc1)c1c(-c2ccc(O)cc2)sc2cc(O)ccc12 [Raloxifene hydrochloride, raloxifene hydrochloride] | 103 |
| CC/C(=C(\c1ccccc1)c1ccc(OCCN(C)C)cc1)c1ccccc1 [Tamoxifen citrate, tamoxifen citrate salt] | 103 |
| C[C@]12C[C@H](O)[C@H]3[C@@H](CCC4=CC(=O)CC[C@@]43C)[C@@H]1CC[C@@H]2C(=O)CO | 104 |
| O=c1c(-c2ccc(O)cc2)coc2cc(O)cc(O)c12 | 96.5 |
| C[C@]12CC[C@@H]3c4ccc(O)cc4CC[C@H]3[C@@H]1CC[C@@H]2O | 107 |
| C[C@]12C=CC(=O)C=C1CC[C@@H]1[C@@H]2[C@@H](O)C[C@@]2(C)[C@H]1CC[C@]2(O)C(=O)CO | 101 |
| C[C@H]1C[C@H]2[C@@H]3CCC4=CC(=O)C=C[C@]4(C)[C@@]3(F)[C@@H](O)C[C@]2(C)[C@@]1(O)C(=O)CO | 105 |
| CC#C[C@]1(O)CC[C@H]2[C@@H]3CCC4=CC(=O)CCC4=C3[C@@H](c3ccc(N(C)C)cc3)C[C@@]21C | 104 |
| C[C@H]1C[C@@H]2[C@H]([C@@H](O)C[C@@]3(C)[C@H]2CC[C@]3(O)C(=O)CO)[C@@]2(C)C=CC(=O)C=C12 | 107 |
| CC(=O)S[C@@H]1CC2=CC(=O)CC[C@]2(C)[C@H]2CC[C@@]3(C)[C@@H](CC[C@@]34CCC(=O)O4)[C@H]12 | 108 |
| CC(=O)O[C@]1(C(C)=O)CC[C@H]2[C@@H]3C=C(Cl)C4=CC(=O)[C@@H]5C[C@@H]5[C@]4(C)[C@H]3CC[C@@]21C [Cyproterone acetate, cyproterone acetate] | 105 |
| C[C@@H]1C[C@H]2[C@@H]3CCC4=CC(=O)C=C[C@]4(C)[C@@]3(F)[C@@H](O)C[C@]2(C)[C@@]1(O)C(=O)CO | 99.8 |
| CC/C(=C(\c1ccc(O)cc1)c1ccc(OCCN(C)C)cc1)c1ccccc1 [4-hydroxytamoxifen] | 102 |

Cited source: paper PMC4374931
